Each recorded value in this set is attributed to patent US20230235058A1.

Items are presented alongside their recorded AntiCD3/CD28 (CD4 T cell proliferation) repeat 1.
target: chimeric BTLA of humanised-BTLA mice (human extracellular region, murine transmembrane and signaling … (human; mouse, UniProt Q7TSA3 184-306, limits assumed); test: cell-based or functional assay; further: test concentration or dose not given here
Sequence (Q7TSA3 other isoform, or with tags, fused parts or gaps mutant limits assumed): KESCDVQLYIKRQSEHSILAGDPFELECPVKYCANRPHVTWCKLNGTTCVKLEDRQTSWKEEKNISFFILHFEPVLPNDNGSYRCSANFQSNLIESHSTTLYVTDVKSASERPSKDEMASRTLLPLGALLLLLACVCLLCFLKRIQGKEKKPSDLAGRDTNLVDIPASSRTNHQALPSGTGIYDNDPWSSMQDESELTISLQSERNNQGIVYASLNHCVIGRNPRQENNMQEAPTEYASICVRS
Response body: numeric value in % inhibition, unit text excluded.

Reference set, count: 2
8C4 (antibody, IgG1, V domains shown, mIgG1) VH: DVQLQESGPGMVKPSQSLSLTCTVTGYSITSGYDWHWIRHFPGNKLEWMGYISYSGSTNYNPSLKSRISITHDTSKNHFFLKLNSVTTEDTATYYCARGTPVVAEDYFDYWGQGTTLTVSS VL: QAVVTQESALSTSPGETVTLTCRSSTGAVTTSNYANWVQEKPDHLFTGLIGATNNRAPGVPARFSGSLIGDKAALTITGAQTEDEAIYFCALWYSNHLVFGGGTKLTVLG :: 12
12F11 (antibody, IgG1, V domains shown, mIgG1) VH: EVQLQQSGPELVKPGASVKISCKASGYTFTDYYMNWVKQSHGKSLEWIGDINPNNGGTSYNQKFKGKATLTVDKSSSTAYMELRSLTSEDSAVYYCARWRQLRSDYWGQGTTLTVSS VL: DIQMTQSPASQSASLGESVTITCLASQTIGTWLAWYQQKPGKSPQLLIYAATSLADGVPSRFSGSGSGTKFSFKISSLQAEDFVSYYCQQLYSTPLTFGAGTKLELK :: 5

Please look at the following binder next.
Complete the entry with AntiCD3/CD28 (CD4 T cell proliferation) repeat 1 for 16H2 (antibody, IgG1, V domains shown, mIgG1) VH: EVQLQQSGPELVQPGASVKISCKASGYTFTDYYMIWVKQSHGKSLEWIGNINPNNGGTTYNQKFKGKATLTVDKSSSTAYMGLPSLTSEDSAVYYCARGGLRPLYFDYWGQGTTLTVSS VL: NIVMTQSPKSMSMSVGERVTLSCKASENVDTYVSWYQQKPEQSPKLLIYGASNRYTGVPDRFTGSGSATDFTLTISSVQAEDLADYHCGQSYSYPLTFGAGTKLELI
11
